In this section, each of the compounds is paired with its reported pest or weed control at 50 g/ha.
Test system: Plasmopara viticola
Assay Method Text: Plasmopara test (grapevine)/protective
Type: in vivo
Settings: 144 h, grapevine plants, protective spray, application rate 50 g/ha, evaluation 6 days after inoculation, 100% = no infection, read-out: efficacy in %
Please reply with the bare figure in % and do not write the unit itself.

Previously resolved entries follow.
{"Compound": "COCCOc1ccc(CCNC(=O)/C(=N\\OC)c2ccc(Cl)cc2)cc1OC", "Numeric Value": 96}
{"Compound": "CCC(C)Oc1ccc(CCNC(=O)/C(=N\\OC)c2ccc(Cl)cc2)cc1OC (centres unmarked)", "Numeric Value": 83}

For reference, reported pest or weed control at 50 g/ha for CCC(C)Oc1ccc(CCNC(=O)/C(=N\OC)c2ccc3c(c2)CCC3)cc1OC (centres unmarked) stands at 94

Quick note, pest or weed control at 50 g/ha for CO/N=C(\C(=O)NCCc1ccc(OC(C)C)c(OC)c1)c1ccc2c(c1)CCC2 landed at 100

pest or weed control at 50 g/ha reading for CCC(=O)COc1ccc(CCNC(=O)/C(=N\OC)c2ccc3c(c2)CCCC3)cc1OC : 94
